Could you please report measured composite z-score for the items listed next?
assay: small-molecule microarray binders of probe aWnt5a, primary screen, biochemical, biotinylated probe, 635/667 nm fluorescence (AID 1113); details: higher = more signal;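 further: score merges 667 nm fluorescence intensity with signal-to-noise per printed feature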
Give bare numbers.

CSCC[C@@H]1NC(=O)CC=C[C@@H](C)COC(=O)[C@@H](C)COC1=O: -0.197
COc1ccc(O[C@H]2C=C[C@@H](c3ccccc3)O[C@@H]2COC(=O)CCC(C)=NOC[C@@H](O)[C@H]2O[C@@H]3OC(C)(C)O[C@@H]3[C@H]2O)cc1: 0.0001
CCCNC(=O)OC[C@H]1O[C@H](CCON=C(C)C)C=C[C@@H]1Oc1ccc(OC)cc1: -0.0887

Proceed to the following item.
### Prompt Name the recorded composite z-score of the item `COc1ccc(O[C@H]2C=C[C@@H](c3ccccc3)O[C@@H]2CON=C(C)CCN2CCc3nc(-c4ccccc4)c(-c4ccccc4)cc3C2)cc1` in your answer.
### Response -0.169
